The reported measurements were obtained from the emibetuzumab library of Makowski et al. (2022).

B1: VH:VL chains; a variant is named by its letters at X, in order (parent)
chain 1: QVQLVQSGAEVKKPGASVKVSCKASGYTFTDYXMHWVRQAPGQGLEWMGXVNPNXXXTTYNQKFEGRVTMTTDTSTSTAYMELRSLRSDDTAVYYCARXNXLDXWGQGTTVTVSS
chain 2: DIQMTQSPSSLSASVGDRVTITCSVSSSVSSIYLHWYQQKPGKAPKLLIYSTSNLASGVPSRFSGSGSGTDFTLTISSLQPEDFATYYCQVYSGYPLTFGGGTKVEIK

# Variants of: B1
# assay_info: yeast display scFab, FACS + sequencing
# particulars: with MET
This is one part of the list. The hit rate among all sequences tested is not known here.
measurement_name: antigen binding call

var=VRTKAVAY measurement_name="antigen binding call" result="no binding"
var=DTTGSDVY measurement_name="antigen binding call" result="no binding"
var=VTGTSSLD measurement_name="antigen binding call" result="no binding"
var=YRGAGSGS measurement_name="antigen binding call" result=binds
var=DAEGGSLD measurement_name="antigen binding call" result="no binding"
var=FRGKSAAA measurement_name="antigen binding call" result=binds
var=YRRGDAGF measurement_name="antigen binding call" result=binds
var=VKAGSAAA measurement_name="antigen binding call" result=binds

Request: Read the entry `YRRGSSGF` and write its reported antigen binding call.
Result: binds

Request: Read the entry `VEEEGDWD` and write its reported antigen binding call.
Result: no binding

Request: Read the entry `YRKGGAGF` and write its reported antigen binding call.
Result: binds

Request: Read the entry `FRTRDAGD` and write its reported antigen binding call.
Result: binds

Request: Read the entry `VGRGNVGV` and write its reported antigen binding call.
Result: no binding

Request: Read the entry `VTRGDVWV` and write its reported antigen binding call.
Result: no binding

Request: Read the entry `YRARGAGA` and write its reported antigen binding call.
Result: binds
